# System: HSkMC
# methodNotes: cytotoxicity call (relative viability < 0.9)
# measurementContext: 10 µM
Screen size: about 39,000 compounds; about 1,500 (3.8%) were called active. The sample holds actives, similar compounds and a random draw of the others, so the mix is not that of the screen.
Answer with one of the outcomes 1 for active, -1 for inactive

Use the examples below as a reference point.
>>> labelvalue("C[C@H]1CN([C@@H](C)CO)C(=O)c2cc(NC(=O)Nc3ccc(C(F)(F)F)cc3)ccc2O[C@@H]1CN(C)Cc1ccncc1")
-1
>>> labelvalue("Cc1noc(C)c1S(=O)(=O)Nc1ccc2c(c1)CC(=O)N([C@@H](C)CO)C[C@H](C)[C@H](CN(C)S(C)(=O)=O)O2")
-1
>>> labelvalue("C[C@H](CO)N1C[C@H](C)[C@H](CN(C)S(=O)(=O)c2ccc(F)cc2)Oc2cc(C#Cc3ccncc3)ccc2S1(=O)=O")
-1
>>> labelvalue("CC[C@@H](C)N[C@H]1CCS(=O)(=O)C1")
-1

Which outcome was entered for the compound COCC#Cc1ccc2c(c1)O[C@@H](CN(C)S(=O)(=O)c1ccc(F)cc1)[C@@H](C)CN([C@@H](C)CO)S2(=O)=O in this test?
1

---

# Tested on: HSkMC (human skeletal muscle cells)
# methodNotes: cytotoxicity call (relative viability < 0.9)
# measurementContext: 10 µM
Screen size: about 39,000 compounds; about 1,500 (3.8%) were called active. Many of the other results were omitted from the sample, so actives are more common in it than they were.
Answer with one of the outcomes active, inactive

>>> labelvalue("CC(N)(Cc1ccc2c(c1)OCO2)C(=O)O (configuration not stated)")
"inactive"
>>> labelvalue("COc1ccc(NC(=O)Nc2cccc3c2O[C@@H](CN(C)Cc2ccc(C(F)(F)F)cc2)[C@H](C)CN([C@@H](C)CO)C3=O)cc1")
"inactive"
>>> labelvalue("C[C@H](CO)N1C[C@H](C)[C@H](CN(C)C(=O)Nc2ccc(C(F)(F)F)cc2)Oc2ccc(NC(=O)Nc3ccc(C(F)(F)F)cc3)cc2C1=O")
"inactive"

Which outcome was entered for the compound Cc1ccc(S(=O)(=O)Nc2ccc3c(c2)C(=O)N([C@@H](C)CO)C[C@@H](C)[C@H](CN(C)Cc2ccc(C(F)(F)F)cc2)OCCCC[C@H](C)O3)cc1 in this test?
inactive

Queued: COc1ccc(S(=O)(=O)Nc2ccc3c(c2)C(=O)N([C@@H](C)CO)C[C@H](C)[C@H](CN(C)Cc2ccc(C(=O)O)cc2)OCCCC[C@H](C)O3)cc1
inactive

Queued: COc1ccc(CN(C)C[C@@H]2Oc3c(NC(=O)Nc4ccc(C(F)(F)F)cc4)cccc3C(=O)N([C@@H](C)CO)C[C@H]2C)cc1
active

Queued: O=C(C[C@H]1C[C@H]2c3cc(NS(=O)(=O)c4ccc(F)cc4)ccc3O[C@H]2[C@H](CO)O1)NCc1ccc(Oc2ccccc2)cc1
inactive

Queued: C[C@@H]1CN([C@@H](C)CO)C(=O)c2cc(C#CC3(O)CCCC3)cnc2O[C@@H]1CN(C)C(=O)Cc1ccccc1
inactive

Queued: C[C@@H]1CN([C@H](C)CO)C(=O)Cc2cc(NC(=O)C3CC3)ccc2O[C@@H]1CN(C)C(=O)Nc1ccc2c(c1)OCO2
inactive

Queued: COc1cccc(NC(=O)N2C[C@@H](O)COC[C@@H]3O[C@@H](CC(=O)NCc4ccccc4F)CC[C@H]32)c1
inactive

Queued: O=C(C[C@H]1C[C@H]2c3cc(NC(=O)Nc4ccccc4F)ccc3O[C@H]2[C@H](CO)O1)NCc1ccc(Oc2ccccc2)cc1
inactive

Queued: C[C@H]1CN([C@@H](C)CO)C(=O)Cc2cc(NC(=O)Nc3ccc4c(c3)OCO4)ccc2O[C@@H]1CN(C)Cc1ccc(Oc2ccccc2)cc1
inactive

Queued: O=C(C[C@@H]1C[C@H]2c3cc(NC(=O)Nc4ccccc4F)ccc3O[C@H]2[C@@H](CO)O1)NCc1ccc(Oc2ccccc2)cc1
inactive

Queued: C[C@@H]1CCCCO[C@H](CN(C)Cc2ccncc2)[C@@H](C)CN([C@@H](C)CO)C(=O)c2cc(NC(=O)Nc3cccc4ccccc34)ccc2O1
inactive
